Reference source: paper PMC10216305

# experimentNotes: in vivo
# Parameters: species or system mice
# measurementConditions: C57, mouse, iv, 0.037 MBq, total radioactivity, Uptake ratio Tumor/kidney
Positions of bridges follow the written chain, without caps; N, C: chain ends. Non-standard residues stand in square brackets, D forms with d. Residues, ends and D or L forms follow the SMILES beside them. *: point of attachment. NOTA = O=C(O)CN1CCN(CC(=O)O)CCN(CC(=O)*)CC1; Nle = CCCC[C@H](N)C(=O)O
reportedEndpoint: tissue to tissue ratio at 24 h
No unit in the answer, please; the number alone is enough.

compound="CCCC[C@H](NC(=O)CNC(=O)CNC(=O)CN1CCN(CC(=O)O)CCN(CC(=O)O)CC1)C(=O)N[C@H]1CC(=O)NCCCC[C@@H](C(N)=O)NC(=O)[C@H](Cc2c[nH]c3ccccc23)NC(=O)[C@H](CCCNC(=N)N)NC(=O)[C@@H](Cc2ccccc2)NC(=O)[C@H](Cc2c[nH]cn2)NC1=O [^67Cu-NOTA-GGNle-CycMSHhex, ^67Cu-NOTA-GlyGlyNle-CycMSHhex, metal not drawn] ({NOTA}-GG[Nle]DH[dF]RWK-NH2; lactam 4-9)" readoutvalue=4.13

Switching to the query record.
Reported tissue to tissue ratio at 24 h for CCCC[C@H](NC(=O)COCCOCCNC(=O)CN1CCN(CC(=O)O)CCN(CC(=O)O)CC1)C(=O)N[C@H]1CC(=O)NCCCC[C@@H](C(N)=O)NC(=O)[C@H](Cc2c[nH]c3ccccc23)NC(=O)[C@H](CCCNC(=N)N)NC(=O)[C@@H](Cc2ccccc2)NC(=O)[C@H](Cc2c[nH]cn2)NC1=O [^67Cu-NOTA-PEG2Nle-CycMSHhex, metal not drawn] : what is it?
10.1

* * *

# experimentNotes: in vivo
# Parameters: species or system mice
# measurementConditions: C57, mouse, iv, 0.037 MBq, total radioactivity, Tumor/liver ratio as times the tumor/liver ratio of ^67Cu-NOTA-GGNle-CycMSHhex
reportedEndpoint: tissue to tissue ratio at 24 h
The response must contain the number and no unit.

Item under review: CCCC[C@H](NC(=O)COCCOCCNC(=O)CN1CCN(CC(=O)O)CCN(CC(=O)O)CC1)C(=O)N[C@H]1CC(=O)NCCCC[C@@H](C(N)=O)NC(=O)[C@H](Cc2c[nH]c3ccccc23)NC(=O)[C@H](CCCNC(=N)N)NC(=O)[C@@H](Cc2ccccc2)NC(=O)[C@H](Cc2c[nH]cn2)NC1=O [^67Cu-NOTA-PEG2Nle-CycMSHhex, metal not drawn] . Reported tissue to tissue ratio at 24 h?
1.8

* * *

# experimentNotes: in vivo
# Design: species or system mice
# measurementConditions: C57, mouse, iv, 0.037 MBq, total radioactivity, Lung uptake
reportedEndpoint: tissue uptake at 0.5 h (%ID/g)
All answers are understood in %ID/g, so give the number only.

Requested read-out: tissue uptake at 0.5 h. Entry: CCCC[C@H](NC(=O)COCCOCCNC(=O)CN1CCN(CC(=O)O)CCN(CC(=O)O)CC1)C(=O)N[C@H]1CC(=O)NCCCC[C@@H](C(N)=O)NC(=O)[C@H](Cc2c[nH]c3ccccc23)NC(=O)[C@H](CCCNC(=N)N)NC(=O)[C@@H](Cc2ccccc2)NC(=O)[C@H](Cc2c[nH]cn2)NC1=O [^67Cu-NOTA-PEG2Nle-CycMSHhex, metal not drawn]
0.76

* * *

# experimentNotes: in vivo
# Set-up: species or system mice
# measurementConditions: C57, mouse, iv, 0.037 MBq, total radioactivity, Uptake ratio Tumor/blood
Positions of bridges follow the written chain, without caps; N, C: chain ends. Non-standard residues stand in square brackets, D forms with d. Residues, ends and D or L forms follow the SMILES beside them. *: point of attachment. NOTA = O=C(O)CN1CCN(CC(=O)O)CCN(CC(=O)*)CC1; Nle = CCCC[C@H](N)C(=O)O
reportedEndpoint: tissue to tissue ratio at 2 h
Answer with a number only.

Item CCCC[C@H](NC(=O)CNC(=O)CNC(=O)CN1CCN(CC(=O)O)CCN(CC(=O)O)CC1)C(=O)N[C@H]1CC(=O)NCCCC[C@@H](C(N)=O)NC(=O)[C@H](Cc2c[nH]c3ccccc23)NC(=O)[C@H](CCCNC(=N)N)NC(=O)[C@@H](Cc2ccccc2)NC(=O)[C@H](Cc2c[nH]cn2)NC1=O [^67Cu-NOTA-GGNle-CycMSHhex, ^67Cu-NOTA-GlyGlyNle-CycMSHhex, metal not drawn] ({NOTA}-GG[Nle]DH[dF]RWK-NH2; lactam 4-9) has what recorded tissue to tissue ratio at 2 h?
389

* * *

The entries below are paired with their reported tissue uptake at 0.5 h.
# experimentNotes: in vivo
# Design: species or system mice
# measurementConditions: C57, mouse, iv, 0.037 MBq, total radioactivity, Kidneys uptake (renal uptake)
Positions of bridges follow the written chain, without caps; N, C: chain ends. Non-standard residues stand in square brackets, D forms with d. Residues, ends and D or L forms follow the SMILES beside them. *: point of attachment. NOTA = O=C(O)CN1CCN(CC(=O)O)CCN(CC(=O)*)CC1; Nle = CCCC[C@H](N)C(=O)O

compound="CCCC[C@H](NC(=O)CNC(=O)CNC(=O)CN1CCN(CC(=O)O)CCN(CC(=O)O)CC1)C(=O)N[C@H]1CC(=O)NCCCC[C@@H](C(N)=O)NC(=O)[C@H](Cc2c[nH]c3ccccc23)NC(=O)[C@H](CCCNC(=N)N)NC(=O)[C@@H](Cc2ccccc2)NC(=O)[C@H](Cc2c[nH]cn2)NC1=O [^67Cu-NOTA-GGNle-CycMSHhex, ^67Cu-NOTA-GlyGlyNle-CycMSHhex, metal not drawn] ({NOTA}-GG[Nle]DH[dF]RWK-NH2; lactam 4-9)" reportedendpoint="tissue uptake at 0.5 h" readoutvalue="7.18 %ID/g"

Now take the following compound into account.
Need tissue uptake at 0.5 h of CCCC[C@H](NC(=O)COCCOCCNC(=O)CN1CCN(CC(=O)O)CCN(CC(=O)O)CC1)C(=O)N[C@H]1CC(=O)NCCCC[C@@H](C(N)=O)NC(=O)[C@H](Cc2c[nH]c3ccccc23)NC(=O)[C@H](CCCNC(=N)N)NC(=O)[C@@H](Cc2ccccc2)NC(=O)[C@H](Cc2c[nH]cn2)NC1=O [^67Cu-NOTA-PEG2Nle-CycMSHhex, metal not drawn] , thanks.
6.43 %ID/g

* * *

Catalogue of tissue uptake at 4 h values
# experimentNotes: in vivo
# Parameters: species or system mice
# measurementConditions: C57, mouse, iv, 0.037 MBq, total radioactivity, Kidneys uptake (renal uptake)
Positions of bridges follow the written chain, without caps; N, C: chain ends. Non-standard residues stand in square brackets, D forms with d. Residues, ends and D or L forms follow the SMILES beside them. *: point of attachment. NOTA = O=C(O)CN1CCN(CC(=O)O)CCN(CC(=O)*)CC1; Nle = CCCC[C@H](N)C(=O)O
Expressed in %ID/g, but write only the number.

compound="CCCC[C@H](NC(=O)COCCOCCNC(=O)CN1CCN(CC(=O)O)CCN(CC(=O)O)CC1)C(=O)N[C@H]1CC(=O)NCCCC[C@@H](C(N)=O)NC(=O)[C@H](Cc2c[nH]c3ccccc23)NC(=O)[C@H](CCCNC(=N)N)NC(=O)[C@@H](Cc2ccccc2)NC(=O)[C@H](Cc2c[nH]cn2)NC1=O [^67Cu-NOTA-PEG2Nle-CycMSHhex, metal not drawn]" valueunit=%ID/g readoutvalue=2.6

Now for a further compound.
Dear colleague, I am looking for the recorded tissue uptake at 4 h of the following compound: CCCC[C@H](NC(=O)CNC(=O)CNC(=O)CN1CCN(CC(=O)O)CCN(CC(=O)O)CC1)C(=O)N[C@H]1CC(=O)NCCCC[C@@H](C(N)=O)NC(=O)[C@H](Cc2c[nH]c3ccccc23)NC(=O)[C@H](CCCNC(=N)N)NC(=O)[C@@H](Cc2ccccc2)NC(=O)[C@H](Cc2c[nH]cn2)NC1=O [^67Cu-NOTA-GGNle-CycMSHhex, ^67Cu-NOTA-GlyGlyNle-CycMSHhex, metal not drawn] ({NOTA}-GG[Nle]DH[dF]RWK-NH2; lactam 4-9)
4.21

* * *

# experimentNotes: in vivo
# Set-up: species or system mice
# measurementConditions: C57, mouse, iv, 0.037 MBq, total radioactivity
Positions of bridges follow the written chain, without caps; N, C: chain ends. Non-standard residues stand in square brackets, D forms with d. Residues, ends and D or L forms follow the SMILES beside them. *: point of attachment. NOTA = O=C(O)CN1CCN(CC(=O)O)CCN(CC(=O)*)CC1; Nle = CCCC[C@H](N)C(=O)O
reportedEndpoint: tissue uptake dose at 2 h (%ID)
Please state the figure in %ID; there is no need to write the unit.

compound="CCCC[C@H](NC(=O)CNC(=O)CNC(=O)CN1CCN(CC(=O)O)CCN(CC(=O)O)CC1)C(=O)N[C@H]1CC(=O)NCCCC[C@@H](C(N)=O)NC(=O)[C@H](Cc2c[nH]c3ccccc23)NC(=O)[C@H](CCCNC(=N)N)NC(=O)[C@@H](Cc2ccccc2)NC(=O)[C@H](Cc2c[nH]cn2)NC1=O [^67Cu-NOTA-GGNle-CycMSHhex, ^67Cu-NOTA-GlyGlyNle-CycMSHhex, metal not drawn] ({NOTA}-GG[Nle]DH[dF]RWK-NH2; lactam 4-9)" readoutvalue=1.3

What tissue uptake dose at 2 h value was documented for this compound, CCCC[C@H](NC(=O)COCCOCCNC(=O)CN1CCN(CC(=O)O)CCN(CC(=O)O)CC1)C(=O)N[C@H]1CC(=O)NCCCC[C@@H](C(N)=O)NC(=O)[C@H](Cc2c[nH]c3ccccc23)NC(=O)[C@H](CCCNC(=N)N)NC(=O)[C@@H](Cc2ccccc2)NC(=O)[C@H](Cc2c[nH]cn2)NC1=O [^67Cu-NOTA-PEG2Nle-CycMSHhex, metal not drawn] ?
0.95
